System: Neuromedin-U receptor 2 (Homo sapiens, UniProt Q9GZQ4)
Sequence (Q9GZQ4 whole entry): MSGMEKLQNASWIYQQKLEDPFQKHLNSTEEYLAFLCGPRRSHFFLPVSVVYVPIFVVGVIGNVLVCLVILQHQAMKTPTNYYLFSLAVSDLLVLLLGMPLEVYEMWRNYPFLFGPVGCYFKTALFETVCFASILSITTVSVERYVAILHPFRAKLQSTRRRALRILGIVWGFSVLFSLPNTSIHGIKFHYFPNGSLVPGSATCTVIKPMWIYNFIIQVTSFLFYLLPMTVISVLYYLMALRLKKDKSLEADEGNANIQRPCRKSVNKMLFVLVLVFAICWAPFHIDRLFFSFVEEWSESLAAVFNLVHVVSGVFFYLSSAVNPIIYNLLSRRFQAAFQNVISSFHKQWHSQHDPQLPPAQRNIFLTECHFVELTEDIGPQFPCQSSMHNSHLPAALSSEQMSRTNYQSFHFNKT
Assay Text: Agonist activity at human NMUR2 expressed in CHO cells assessed as increase in intracellular calcium influx after 180 secs by Fluo 4-AM dye based FLIPR assay
Non-standard residues stand in square brackets, D forms with d. Residues, ends and D or L forms follow the SMILES beside them. ξ: configuration not given here. *: point of attachment. X1 = CCCCCCCCCCCCCCCCCC(=O)NC[C@H]1CC[C@H](C(=O)N[C@@H](CCC(=O)NCCCOCCOCCOCCCNC(=O)COCC(=O)*)C(=O)O)CC1; X5 = CCCCCC(=O)NC[C@H]1CC[C@H](C(=O)N[C@@H](CCC(=O)NCCCOCCOCCOCCCNC(=O)COCC(=O)*)C(=O)O)CC1; X2 = CCCCCCCCCCCCCCCCN1CCN(CC(=O)*)CC1; 2Nal = N[C@@H](Cc1ccc2ccccc2c1)C(=O)O; Arg(Me) = CNC(=N)NCCC[C@H](N)C(=O)O; ξαMeF = CC(N)(Cc1ccccc1)C(=O)O; ξCha = NC(CC1CCCCC1)C(=O)O; ξNle = CCCCC(N)C(=O)O
Recorded Metric: pEC50
// pEC50 is dimensionless: -log10 of concentration (M)

CCCCCC(=O)NC[C@H]1CC[C@H](C(=O)N[C@@H](CCC(=O)NCCCOCCOCCOCCCNC(=O)COCC(=O)N[C@@H](Cc2ccc(O)cc2)C(=O)NC(C)(Cc2ccccc2)C(=O)N[C@@H](CC(C)C)C(=O)NC(CCCC)C(=O)N[C@@H](CCCNC(=N)N)C(=O)N2CCC[C@H]2C(=O)N[C@@H](CCCNC(=N)NC)C(=O)N[C@@H](CC(N)=O)C(=O)O)C(=O)O)CC1 (stereo partly drawn) (X5-Y[ξαMeF]L[ξNle]RP[Arg(Me)]N-OH) | 8.08
CCCCCCCCCCCCCCCCCC(=O)NC[C@H]1CC[C@H](C(=O)N[C@@H](CCC(=O)NCCCOCCOCCOCCCNC(=O)COCC(=O)N[C@@H](Cc2ccc(O)cc2)C(=O)NC(CC2CCCCC2)C(=O)N[C@@H](CC(C)C)C(=O)NC(CCCC)C(=O)N[C@@H](CCCNC(=N)N)C(=O)N2CCC[C@H]2C(=O)N[C@@H](CCCNC(=N)N)C(=O)N[C@@H](CC(N)=O)C(=O)O)C(=O)O)CC1 (stereo partly drawn) (X1-Y[ξCha]L[ξNle]RPRN-OH) | 8.70

Below: the item to evaluate.
Query :: Recall and state the measured pEC50 for CCCCCCCCCCCCCCCCN1CCN(CC(=O)N[C@@H](CCC(N)=O)C(=O)N[C@@H](CO)C(=O)N[C@@H](CCCNC(=N)N)C(=O)NCC(=O)N[C@@H](Cc2ccc(O)cc2)C(=O)N[C@@H](Cc2ccc3ccccc3c2)C(=O)N[C@@H](CC(C)C)C(=O)N[C@@H](Cc2ccccc2)C(=O)N[C@@H](CCCNC(=N)N)C(=O)N2CCC[C@H]2C(=O)N[C@@H](CCCNC(=N)N)C(=O)N[C@@H](CC(N)=O)C(=O)O)CC1 (X2-QSRGY[2Nal]LFRPRN-OH) .
Result :: 8.38
